B1: library; numbered along this chain (parent)
chain: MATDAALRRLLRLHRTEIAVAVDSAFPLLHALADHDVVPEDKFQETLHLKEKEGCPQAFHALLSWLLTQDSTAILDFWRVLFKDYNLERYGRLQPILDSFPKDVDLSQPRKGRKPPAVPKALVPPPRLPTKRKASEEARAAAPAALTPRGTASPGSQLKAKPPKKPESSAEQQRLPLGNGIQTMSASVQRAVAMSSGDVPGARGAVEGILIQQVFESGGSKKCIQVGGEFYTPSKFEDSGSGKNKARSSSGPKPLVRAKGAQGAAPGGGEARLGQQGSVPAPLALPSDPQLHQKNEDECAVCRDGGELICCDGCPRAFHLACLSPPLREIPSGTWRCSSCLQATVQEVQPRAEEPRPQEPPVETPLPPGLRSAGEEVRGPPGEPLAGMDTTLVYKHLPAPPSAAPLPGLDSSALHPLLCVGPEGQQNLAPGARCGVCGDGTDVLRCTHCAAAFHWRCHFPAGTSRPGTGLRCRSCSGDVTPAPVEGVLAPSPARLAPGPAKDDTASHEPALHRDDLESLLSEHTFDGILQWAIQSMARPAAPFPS

Variants of: B1
Assay Summary: AIRE transcriptional activation functional score (insulin promoter-GFP; nonsense median 0, synonymous median 1) (normalised score); higher = higher AIRE activity (more reporter activation)
Particulars: with insulin promoter-GFP reporter in HEK293
Can you tell me AIRE transcriptional activation functional score for the items I'm about to list?
No unit in the answer, only the number.

Prompt: Answer with reported AIRE transcriptional activation functional score of "D76N"
Completion: -0.077

Prompt: // Input: "C223V" . Output its AIRE transcriptional activation functional score only.
Completion: 0.923

Prompt: Respond only with AIRE transcriptional activation functional score recorded for "A264L"
Completion: 1.18

Prompt: Answer with the recorded AIRE transcriptional activation functional score of "R9L" only.
Completion: 0.268

Prompt: Give reported AIRE transcriptional activation functional score value for "H523V"
Completion: 0.847

Prompt: Provide one value: measured AIRE transcriptional activation functional score of "L285A"
Completion: 1.37

Prompt: Identify the reported AIRE transcriptional activation functional score for the following entry. "E167I"
Completion: 1.19

Prompt: Could you please provide reported AIRE transcriptional activation functional score for "A58L" ? Thanks!
Completion: 0.0439

Prompt: Give AIRE transcriptional activation functional score for the following variant: "R456L"
Completion: 1.04

Prompt: Look up AIRE transcriptional activation functional score of "A352K" and report it.
Completion: 0.997

Prompt: Fill in AIRE transcriptional activation functional score for record "Q173S"
Completion: 1.34

Prompt: Name the recorded AIRE transcriptional activation functional score of the item "A152P" in your answer.
Completion: 0.594

Prompt: Kindly indicate its recorded AIRE transcriptional activation functional score. Item: "S545A"
Completion: -0.21

Prompt: // Input: "P27A" . Output its AIRE transcriptional activation functional score only.
Completion: 0.562

Prompt: Let me know recorded AIRE transcriptional activation functional score for "A61E" , thanks.
Completion: 0.619

Prompt: Identify the reported AIRE transcriptional activation functional score for the following entry. "E298T"
Completion: 0.228

Prompt: Give the value of AIRE transcriptional activation functional score reported for the following: "L392N"
Completion: 0.909

Prompt: Input "A343Q" , output reported AIRE transcriptional activation functional score.
Completion: 0.485

Prompt: Please give the documented AIRE transcriptional activation functional score of "A117C"
Completion: 1.1

Prompt: Tell me its AIRE transcriptional activation functional score given "A432Q" as the entry.
Completion: 0.748

Prompt: Please give measured AIRE transcriptional activation functional score of the following entry: "V80S"
Completion: -0.226

Prompt: Query AIRE transcriptional activation functional score for "S402F"
Completion: 0.518

Source: the supplement of paper PMC12667976
